meta.source: ChEMBL document CHEMBL2375266

System: Tyrosine-protein phosphatase non-receptor type 1 (Homo sapiens)
Sequence (P18031 whole entry): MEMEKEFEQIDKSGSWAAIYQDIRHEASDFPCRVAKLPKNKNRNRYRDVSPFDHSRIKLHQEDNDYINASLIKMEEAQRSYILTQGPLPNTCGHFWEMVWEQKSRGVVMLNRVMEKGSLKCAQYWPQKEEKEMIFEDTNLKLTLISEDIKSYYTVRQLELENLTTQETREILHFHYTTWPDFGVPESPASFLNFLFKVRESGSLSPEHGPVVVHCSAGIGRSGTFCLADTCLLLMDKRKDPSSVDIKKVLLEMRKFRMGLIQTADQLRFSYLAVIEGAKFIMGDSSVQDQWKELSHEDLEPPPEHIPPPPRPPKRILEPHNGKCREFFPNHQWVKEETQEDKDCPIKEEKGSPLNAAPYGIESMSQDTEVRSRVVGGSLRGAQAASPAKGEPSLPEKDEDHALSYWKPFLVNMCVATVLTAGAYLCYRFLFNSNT
Assay: Inhibition of PTP1B (unknown origin)
pKi: −log10 of the molar value.
Metric Name: pKi

INSERT INTO results (compound_structure_string, metric_name, value) VALUES
  ('CCc1cc(CN(C(C)=O)C(=O)NCCCCOc2cccc(O)c2C(=O)OC)ccc1N(C(=O)C(=O)O)c1ccccc1C(=O)O', 'pKi', 7.74);

###

System: Tyrosine-protein phosphatase non-receptor type 2 (Homo sapiens, UniProt P17706)
Sequence (P17706 whole entry): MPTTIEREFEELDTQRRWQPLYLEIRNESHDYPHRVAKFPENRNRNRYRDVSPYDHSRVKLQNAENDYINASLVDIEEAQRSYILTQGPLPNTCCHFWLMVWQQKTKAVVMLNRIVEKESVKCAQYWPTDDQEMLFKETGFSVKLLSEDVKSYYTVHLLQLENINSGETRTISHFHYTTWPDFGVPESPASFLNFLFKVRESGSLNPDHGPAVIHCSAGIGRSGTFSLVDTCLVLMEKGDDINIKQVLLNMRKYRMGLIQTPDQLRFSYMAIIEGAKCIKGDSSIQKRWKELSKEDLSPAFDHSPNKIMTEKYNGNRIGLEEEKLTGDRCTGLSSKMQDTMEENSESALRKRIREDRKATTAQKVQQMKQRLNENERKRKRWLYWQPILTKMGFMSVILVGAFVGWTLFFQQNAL
Assay: Inhibition of TCPTP (unknown origin)
pKi: −log10 of the molar value.
If the reported pKi equals or exceeds 5, assign class 1. If not, assign class 0.

INSERT INTO assay_data (compound, cat) VALUES
  ('O=C(O)CN(CC(=O)O)S(=O)(=O)C(Cc1ccc(NC(=O)C(=O)O)cc1)c1nc2ccccc2o1 (stereo not drawn)', 'class 0'),
  ('CCCCNS(=O)(=O)C(Cc1ccc(NC(=O)C(=O)O)cc1)c1nc2ccccc2o1 (stereo not drawn)', 'class 0'),
  ('O=C(O)C(=O)Nc1ccc(C[C@H](c2nc3ccccc3o2)S(=O)(=O)N(Cc2ccc(Cl)cc2)Cc2ccc(Cl)cc2)cc1', 'class 1'),
  ('O=C(O)C(=O)Nc1ccc(CC(c2nc3ccccc3o2)S(=O)(=O)NC(=O)c2ccccc2)cc1 (stereo not drawn)', 'class 0'),
  ('CC(C)Oc1ccc(NS(=O)(=O)C(Cc2ccc(NC(=O)C(=O)O)cc2)c2nc3ccccc3o2)cc1 (stereo not drawn)', 'class 0');
